pIC50: −log10 of the molar value.
Observed pIC50 values for Histone Deacetylase 4 (HDAC4) catalytic domain (Homo sapiens, UniProt P56524) are listed in what follows.
parameter measured: pIC50

O=C(NO)c1cc(N2CCCC2)nn1-c1ccccc1 [Example 14]	5.00
CN1CC=C(c2cc(C(=O)NO)n(-c3ccccc3)n2)CC1 [Example 11]	6.62

a. O=C(NO)c1cc(C2CCCC2)nn1-c1ccccc1 [Example 7]
b. Cc1ccccc1-c1cc(C(=O)NO)n(-c2ccccc2)n1 [Example 3]
c. O=C(NO)c1cc(OCc2ccccc2)nn1-c1ccccc1 [Example 13]
IN: Rank the 3 molecules: largest pIC50 first, smallest last. Your task in answering is to list the labels in the requested order.
OUT: b, a, c
(b: 6.03, a: 5.74, c: 4.56)

Where these numbers come from: patent US20160031863A1
